Assignment: determine reported Anti-CD28 Fab signal in the presence of CD28 for the given binders.
target: T1, Anti-CD28 Fab (SEQ ID NOs: 202, 203); assay: phage ELISA, Fab on plate, CD28 antigen as competitor
T1 construct: biotinylated and captured on neutravidin coated plates in the phage ELISA
T1 sequence (VH, as listed by the source, chain 1 of 2): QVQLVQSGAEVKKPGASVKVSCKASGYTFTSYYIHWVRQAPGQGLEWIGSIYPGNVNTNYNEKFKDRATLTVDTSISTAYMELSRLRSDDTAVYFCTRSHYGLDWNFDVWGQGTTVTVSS
T1 sequence (VL, as listed by the source, chain 2 of 2): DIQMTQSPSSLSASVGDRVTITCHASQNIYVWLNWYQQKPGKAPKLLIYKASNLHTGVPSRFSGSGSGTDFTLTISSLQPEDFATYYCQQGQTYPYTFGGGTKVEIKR
Give bare numbers.

Below, 3 binders whose answers are already recorded.
What the record says about YCDGHLPEYMQKCL [Phage-643] : Anti-CD28 Fab signal in the presence of CD28 is 0.08

What the record says about YCDGHAPQYMRKCL [Phage-651] : Anti-CD28 Fab signal in the presence of CD28 is 0.08

What the record says about YCEGHLPEYMIKCL [Phage-658] : Anti-CD28 Fab signal in the presence of CD28 is 0.06

Hi there! I need Anti-CD28 Fab signal in the presence of CD28 for each item below, if you can.
1. YCEGHLPQYMSKCL [Phage-719]
2. YCEGHSSQWMWKCL [Phage-674]
3. YCDGHSKEYMAKCL [Phage-646]
4. YCAGHLPMYMQKCL [Phage-653]
5. YCEGHLPAYMGKCI [Phage-632]

A.
0.09
0.09
0.06
0.08
0.09

The reported numbers originate from patent US20260274955A1.
